pKi: −log10 of the molar value. Structures can show the parent of a compound that is named as a salt.
Dear all, this message contains pKi results, target or system purified human Factor XIa (Homo sapiens (Human)).
Measurement label: pKi

[a] CN1CCN(c2cccc3c2CCN(C(=O)CC2CCN(C(=N)N)CC2)[C@H]3C(=O)Nc2ccc(C(=O)O)cc2)C(=O)C1 [Example 19, bis-HCl Salt]
[b] COC1CCN(c2cccc3c2CCN(C(=O)C2CCN(C(=N)N)CC2)C3C(=O)Nc2ccc(C(=O)O)cc2)CC1 (stereo not drawn) [Example 24, bis-TFA salt]
[c] COC1CCN(c2cccc3c2CCN(C(=O)C2CC4(CCNCC4)C2)C3C(=O)Nc2ccc(C(=O)O)cc2)CC1 (stereo not drawn) [Example 12, bis TFA Salt]
[d] N=C(N)N1CCc2nc(C(=O)N3CCc4c(Br)cccc4C3C(=O)Nc3ccc(C(=O)O)cc3)sc2C1 (stereo not drawn) [Example 1, TFA Salt]
Query: Which order do the items above take when sorted by pKi from high to low? // list labels; follow requested order
Reply: b, d, c, a
(b: 8.25, d: 7.04, c: 6.72, a: 6.42)
